Tested on: MALME-3M melanoma
EXPERIMENT_DESCRIPTION: NCI tumour cell line growth inhibition, 48 h
ATTRIBUTE_MEASURED: TGI

Below: 5 compounds and their reported TGI.
[
  {
    "COMPOUND": "CCOC(=O)N1CCC(=O)C[C@@H]1C/C=C/P1(=O)O[C@H](c2ccccc2)C(C)N1C(C)C (stereo partly specified)",
    "TGI": "> 100 µM"
  },
  {
    "COMPOUND": "N#Cc1ccccc1Nc1ccccc1S",
    "TGI": "80.3 µM"
  },
  {
    "COMPOUND": "Cc1cc2c(C(C)C)c(O)c(O)c(C=O)c2c(O)c1-c1c(C)cc2c(C(C)C)c(O)c(O)c(C=O)c2c1O (tested in a mixture with another compound)",
    "TGI": "5.01 µM"
  },
  {
    "COMPOUND": "CC1(C)C(=O)C2(C#N)CCC1C2 (stereo unspecified)",
    "TGI": "> 100 µM"
  },
  {
    "COMPOUND": "C/C(=N\\Nc1cccc(Cl)n1)c1ccccn1",
    "TGI": "8.71 µM"
  }
]

### Prompt Return reported TGI; argument: `N#CSCC(=O)c1ccc(Cl)cc1`
### Response 42.9 µM

### Prompt Return reported TGI; argument: `COc1cccc(-c2cc(=O)c3cccnc3[nH]2)c1`
### Response > 100 µM
